Attribution: ChEMBL document CHEMBL3763108

# target_of_assay: Acetylcholinesterase (Homo sapiens)
# Sequence (P22303 whole entry): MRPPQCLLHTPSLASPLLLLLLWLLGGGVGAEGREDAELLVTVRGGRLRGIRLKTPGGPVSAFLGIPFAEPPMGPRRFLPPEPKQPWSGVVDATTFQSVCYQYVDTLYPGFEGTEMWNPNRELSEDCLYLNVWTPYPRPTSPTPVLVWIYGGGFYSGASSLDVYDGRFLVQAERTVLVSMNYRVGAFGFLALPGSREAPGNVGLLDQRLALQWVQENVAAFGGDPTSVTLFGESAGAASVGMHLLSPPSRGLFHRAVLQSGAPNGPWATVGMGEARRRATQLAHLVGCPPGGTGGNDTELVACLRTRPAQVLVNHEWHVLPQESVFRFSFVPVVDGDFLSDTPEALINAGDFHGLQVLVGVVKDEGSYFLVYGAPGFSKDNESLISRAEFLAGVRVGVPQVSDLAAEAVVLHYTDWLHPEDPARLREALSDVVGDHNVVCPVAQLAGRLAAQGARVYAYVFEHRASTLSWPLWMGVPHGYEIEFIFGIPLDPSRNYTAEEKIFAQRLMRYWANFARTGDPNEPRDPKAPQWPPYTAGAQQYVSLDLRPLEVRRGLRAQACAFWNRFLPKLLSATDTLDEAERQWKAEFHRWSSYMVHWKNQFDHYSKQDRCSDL
# method_summary: Inhibition of AChE (unknown origin) using acetylthiocholine as substrate assessed as reduction of DTNB to TNB preincubated for 20 mins followed by addition of substrate by Ellman's kinetic method
assay_metric: pIC50
Please note pIC50 is a logarithmic value: minus log10 of concentration in mol/L. Answer with that number alone.

Examples from the recorded data:
Problem: Query: pIC50; subject: Cc1ccc2c(c1)C1(C(=O)N2)C(C#N)=C(N)N2CCNC2=C1[N+](=O)[O-] (centres undefined)
Result: 5.41

Problem: Entry Cc1ccc2c(c1)C1(C(=O)N2)C(C#N)=C(N)N2CCCNC2=C1[N+](=O)[O-] (centres undefined) has what pIC50?
Result: 6.03

Problem: Consider the compound shown here: CC1(C)CNC2=C([N+](=O)[O-])C3(C(=O)c4ccc(Br)c5c(Br)ccc3c45)C(C#N)=C(N)N2C1 (centres undefined) What is its recorded pIC50?
Result: 5.22

Next:
Problem: Item under review: CC1(C)CNC2=C([N+](=O)[O-])C3(C(=O)Nc4ccccc43)C(C#N)=C(N)N2C1 (centres undefined) . Reported pIC50?
Result: 5.90
